Tested on: MDA-MB-468 breast
assay: NCI-60 one-dose screen, 48 h (100 = growth as untreated, 0 = no growth, -100 = all killed)
recordedConditions: 10 µM unless noted
Protocol: Growth inhibition of the MDA-MB-468 human Breast tumor cell line is measured as a screen for anti-cancer activity. Cells are grown in 96 well plates and exposed to the test compound for 48 hours. Compounds are tested at a single concentration, which is 10^-5 M for most compounds. The reported endpoint is percent growth (GI% or GIPRCNT), where numbers from 0 - 100% represent growth inhibition, and numbers from -100% - 0 represent cell death. […]
The panel holds about 83,000 compounds, 20% with a hit somewhere; the sample as a whole holds those more often.
quantity: growth (%)
Write the number in % without appending the unit.

-- ask // growth lookup, key: COc1ccc2c3c(c4ccccc4cc13)C(=O)N(CCN(C)CCN)C2=O
-- reply -76.5

-- ask // growth lookup, key: CCCCCCCC1(C)NC(=O)NC1=O (stereo not drawn)
-- reply 115

-- ask // growth lookup, key: Cc1nc(Nc2ccc(S(=O)(=O)Nc3cc(C)on3)cc2)c2ccccc2n1
-- reply 104

-- ask // growth lookup, key: C/C(=C(\c1ccc(OCCCN(C)C)cc1)c1ccc(OC(=O)Cc2ccccc2)cc1)c1ccc(Cl)cc1
-- reply 84.1

-- ask // growth lookup, key: COc1ccc2c(c1)[nH]c(=O)c1c3cc(C)c(C)cc3cn21
-- reply 7.03

-- ask // growth lookup, key: N#C/C(=C\c1ccc[nH]1)c1cc2ccccc2[nH]1
-- reply -3.15

-- ask // growth lookup, key: C/C(=C\c1cc(Cl)ccc1OCC(=O)O)[N+](=O)[O-]
-- reply 112

-- ask // growth lookup, key: O=C1OCC2=C1C(c1cccc(Br)c1)c1cc3c(cc1N2CCO)CCC3 (stereo not drawn)
-- reply -3.99

-- ask // growth lookup, key: COc1ccc(C/C(C)=C(\c2ccc(Cl)cc2)c2ccc(OCCN3CCCCCC3)cc2)cc1
-- reply 70.9

-- ask // growth lookup, key: COC(=O)[C@]12CC[C@@H](C)[C@H](C)[C@@H]1C1=CC[C@@H]3[C@@]4(C)C[C@@H](OC(=O)c5ccco5)[C@H](O)[C@@](C)(CO)[C@@H]4[C@H](O)C[C@@]3(C)[C@]1(C)CC2
-- reply -89.1

-- ask // growth lookup, key: Cn1c(C(=O)c2cccc3ccccc23)nc2ccccc21
-- reply -1.13

-- ask // growth lookup, key: CC(C)(C)OC(=O)Nc1ccc2c(c1)C(NC(=O)Nc1cccc(C#N)c1)CC(C)(C)O2 (stereo not drawn)
-- reply -5.73

-- ask // growth lookup, key: O=C(N/N=C\c1cc(Br)cc(Br)c1O)N/N=C/c1cc(Br)cc(Br)c1O
-- reply 57.7

-- ask // growth lookup, key: CCSc1nc(Cl)c(C#N)c(-c2ccc(F)cc2)n1
-- reply 84.2

-- ask // growth lookup, key: CS(=O)(CCCCN=C=S)=NC(=O)c1c(F)c(F)c(F)c(F)c1F (stereo not drawn)
-- reply 72.6

-- ask // growth lookup, key: N#Cc1nc(-c2ccccc2)oc1N1CC[C@@H](CO)C1
-- reply 95.2

-- ask // growth lookup, key: Cc1ccc(C2CC(c3cccc(Nc4ccncc4)c3)=NN2c2ccccc2)cc1 (stereo not drawn)
-- reply -78.5

-- ask // growth lookup, key: COc1ccc(-c2[nH]ncc2Nc2cc(OC)c(OC)c(OC)c2)cc1
-- reply 21.7

-- ask // growth lookup, key: COc1ccc(-c2nc3ccc(-c4nnc(SCC(=O)Nc5ccc(C(=O)/C=C/c6ccc(Cl)cc6)cc5)o4)cc3[nH]2)cc1OC
-- reply 102

-- ask // growth lookup, key: COc1ccccc1N1CCN(C(=O)c2ccc3nc(NC(=O)c4ccc(NCCc5ccccc5)c([N+](=O)[O-])c4)sc3c2)CC1
-- reply 99.1

-- ask // growth lookup, key: Oc1c(CN2CCCC2)cc(CSCc2ccccc2)c2cccnc12
-- reply -33.1

-- ask // growth lookup, key: CCCCCCCCCCCCCCCC(=O)OC1[C@@H](OC(=O)CCCCCCCCCCCCCCC)[C@@H](C(=O)N[C@@H](CCCCN)C(=O)OC)O[C@H]1n1cnc2c(=O)[nH]c(NC(=O)C(C)C)nc21 (stereo partly drawn)
-- reply 83.1

-- ask // growth lookup, key: CCCCCCCCCCCCCCCCCC(=O)OCCCCCCCCCCCCC
-- reply 117

-- ask // growth lookup, key: O=C(Nc1ccccc1)c1sc(-c2ccccc2)cc1O
-- reply 107

-- ask // growth lookup, key: COc1cc2cc(Oc3ccc(NC(=O)c4cccc(C(F)(F)F)c4)cc3)c(C)nc2cc1OCCN(C)C
-- reply 81.5

-- ask // growth lookup, key: COc1ccc2nc3cc(Cl)ccc3c(NCCNc3c4ccc(Cl)cc4nc4ccc(OC)cc34)c2c1
-- reply -69.8

-- ask // growth lookup, key: O=C(CSc1nnnn1-c1ccccc1)Nc1ccc(Oc2ccccc2)cc1
-- reply 115

-- ask // growth lookup, key: COc1ccc(C(=O)/C=C/C23c4ccccc4C(c4ccccc42)C2C(=O)NC(=O)C23)cc1 (stereo not drawn)
-- reply 98.7

-- ask // growth lookup, key: NS(=O)(=O)c1ccc(C2C3=C(CCCC3=O)OC3=C2C(=O)c2ccccc2C3=O)cc1 (stereo not drawn)
-- reply -47.4

-- ask // growth lookup, key: Nc1nc(Nc2ccccc2)c(C=Nc2ccccc2)c(=O)[nH]1
-- reply 99.6

-- ask // growth lookup, key: COc1cc(OC)cc(C2C(C#N)=C(N)Oc3c2ccc2ccc(O)cc32)c1 (stereo not drawn)
-- reply -16.6

-- ask // growth lookup, key: CCCCCCCCCCCCCC1=NCC[N+]1(CCO)Cc1ccccc1 (stereo not drawn)
-- reply -81.2

-- ask // growth lookup, key: COc1ccc(-c2cn3ccnc3c(-c3ccc4ncn(C5CCCCC5)c4c3)n2)cc1
-- reply 2.59

-- ask // growth lookup, key: COc1ccc(C(=O)CC(CC(=O)c2ccc(OC)cc2)c2c(C)nn(-c3ccccc3)c2Cl)cc1
-- reply 96.4

-- ask // growth lookup, key: CNC(=O)c1cc(-c2ccc(NC(=O)Nc3ccc(N4CCOCC4)c(C(F)(F)F)c3)cc2)nc2cccnc12
-- reply 29

-- ask // growth lookup, key: CNC(=O)c1cc(N2CCc3cc(NC(=O)Nc4ccc(Cl)c(Cl)c4)ccc32)ccn1
-- reply 84.5

-- ask // growth lookup, key: Cc1cc(CC(C)CC(C)(C)C)n(O)c(=O)c1 (stereo not drawn) (tested in a mixture with another compound)
-- reply -7.41

-- ask // growth lookup, key: Oc1c(CN2CCOCC2)cc(COCc2ccccc2)c2cccnc12
-- reply 12.1
